Target: Integrin beta-2 (Homo sapiens) + Integrin alpha-M (Homo sapiens) (UniProt P05107+P11215)
Sequence (P05107 whole entry, looked up, other chains not shown): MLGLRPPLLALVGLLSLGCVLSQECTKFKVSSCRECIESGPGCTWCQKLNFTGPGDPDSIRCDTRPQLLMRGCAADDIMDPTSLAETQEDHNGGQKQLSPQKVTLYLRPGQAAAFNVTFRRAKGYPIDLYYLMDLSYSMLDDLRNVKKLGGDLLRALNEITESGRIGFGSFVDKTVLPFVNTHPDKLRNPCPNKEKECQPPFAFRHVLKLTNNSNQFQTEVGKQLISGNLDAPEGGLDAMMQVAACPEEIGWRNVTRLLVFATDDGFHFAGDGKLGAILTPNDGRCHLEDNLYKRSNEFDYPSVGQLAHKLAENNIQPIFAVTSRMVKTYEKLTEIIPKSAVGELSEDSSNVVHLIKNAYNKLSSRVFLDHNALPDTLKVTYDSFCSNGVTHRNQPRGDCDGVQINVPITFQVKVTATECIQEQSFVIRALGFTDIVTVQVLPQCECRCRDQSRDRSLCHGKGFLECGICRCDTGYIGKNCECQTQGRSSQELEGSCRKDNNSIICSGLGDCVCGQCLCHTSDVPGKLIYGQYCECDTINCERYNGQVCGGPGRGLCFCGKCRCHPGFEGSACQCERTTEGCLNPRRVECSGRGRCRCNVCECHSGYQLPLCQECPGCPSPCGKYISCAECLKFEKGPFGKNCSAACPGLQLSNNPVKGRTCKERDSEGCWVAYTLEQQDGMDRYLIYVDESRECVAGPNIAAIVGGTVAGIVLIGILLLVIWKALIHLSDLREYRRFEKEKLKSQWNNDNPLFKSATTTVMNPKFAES
Experiment: enhancers of CD11b/CD18 adhesion to fibrinogen, primary screen, K562 cells, luminescence (AID 1499)
Details: ATPlite luminescence, at 10 µM, active compounds read high
The campaign covered roughly 93,000 compounds. About 65 (0.07%) were called active. This is one part of a sample in which actives are shown more often than they occur.
MEASURED ATTRIBUTE: activation (%)
Provide the reading as a plain figure in %.

Below: 2 compounds and their reported activation.
- COMPOUND: "O=C(N/N=C/c1cccc([N+](=O)[O-])c1)C1CC(=O)N(c2ccc(Br)cc2)C1 (stereo not drawn)"
  activation / %: -1.9
- COMPOUND: "O=C(COC(=O)Cn1cnc2ccccc2c1=O)NCC12CC3CC(CC(C3)C1)C2"
  activation / %: 5.2

Q: // fetch activation given entry O=C(CCCCn1c(=O)[nH]c2ccccc2c1=O)NCc1ccc2c(c1)OCO2
A: -2

---

Listed here: items and their measured activation.
Molecular target: Integrin beta-2 (Homo sapiens) + Integrin alpha-M (Homo sapiens) (UniProt P05107+P11215)
Test: enhancers of CD11b/CD18 adhesion to fibrinogen, primary screen, K562 cells, luminescence (AID 1499)
Conditions: ATPlite luminescence, at 10 µM, active compounds read high
The campaign covered roughly 93,000 compounds. About 65 (0.07%) were called active. Shown is part of a subset that was picked to be rich in actives.
Provide the reading as a plain figure in %.

Below: 10 compounds and their reported activation.
- COMPOUND: "COc1ccc(CCNC(=O)CSc2nc(-c3ccc(OC)c(OC)c3)ccc2C#N)cc1"
  UNIT LABEL: "%"
  activation: 8.9
- COMPOUND: "O=C(NCC1CCCO1)/C(=C/c1ccc(Cl)cc1)NC(=O)c1ccccc1 (configuration not stated)"
  UNIT LABEL: "%"
  activation: 0.2
- COMPOUND: "CSCC[C@H](NC(=O)OC(C)(C)C)C(=O)N/N=C/c1cc2ccc(C)cc2nc1Cl"
  UNIT LABEL: "%"
  activation: 1.8
- COMPOUND: "Cc1c(C(=O)NCCCc2ccccc2)cccc1[N+](=O)[O-]"
  UNIT LABEL: "%"
  activation: -3.8
- COMPOUND: "OC(COCC1COc2ccccc2O1)CN1CCN(c2ccc(F)cc2)CC1 (configuration not stated)"
  UNIT LABEL: "%"
  activation: 4.1
- COMPOUND: "O=C(COC(=O)Cc1ccc(F)cc1)Nc1cc(S(=O)(=O)N2CCOCC2)ccc1N1CCCC1"
  UNIT LABEL: "%"
  activation: -2.5
- COMPOUND: "Cc1ccc(-n2c(SCC(=O)N3c4ccccc4Sc4ccccc43)nnc2-c2ccncc2)cc1"
  UNIT LABEL: "%"
  activation: 7.2
- COMPOUND: "COc1ccc(C(=O)OCC(=O)NC(=O)CCSc2ccccc2)cc1"
  UNIT LABEL: "%"
  activation: 0.6
- COMPOUND: "COc1ccc(CN2C(=O)CC(Cc3ccc(C)cc3)C2=O)cc1OC (configuration not stated)"
  UNIT LABEL: "%"
  activation: -1.2
- COMPOUND: "O=C(Oc1ccccc1Cl)c1ccc(N2CCOCC2)c([N+](=O)[O-])c1"
  UNIT LABEL: "%"
  activation: -0.9

Q: Return reported activation for target or system Integrin beta-2 (Homo sapiens) + Integrin alpha-M (Homo sapiens) (UniProt P05107+P11215), item CC1CCN(c2ccc(C(=O)NCc3ccc4c(c3)OCO4)cc2[N+](=O)[O-])CC1 .
A: 0.5

Q: Return reported activation for target or system Integrin beta-2 (Homo sapiens) + Integrin alpha-M (Homo sapiens) (UniProt P05107+P11215), item COc1ccc(C2c3c(C)nn(-c4ccccc4)c3NC(=O)N2c2ccccc2)cc1 (configuration not stated) .
A: -1.5

Q: Return reported activation for target or system Integrin beta-2 (Homo sapiens) + Integrin alpha-M (Homo sapiens) (UniProt P05107+P11215), item C=CCSc1nc2ccccc2[nH]1 .
A: 6.8

Q: Return reported activation for target or system Integrin beta-2 (Homo sapiens) + Integrin alpha-M (Homo sapiens) (UniProt P05107+P11215), item Cc1nnc(SCC(=O)N2CCOCC2)[nH]c1=O .
A: -6.4

Q: Return reported activation for target or system Integrin beta-2 (Homo sapiens) + Integrin alpha-M (Homo sapiens) (UniProt P05107+P11215), item C=CCSc1nc(Cc2ccc(Cl)cc2)nc2ccccc12 .
A: 69.1

---

Target: Integrin beta-2 (Homo sapiens) + Integrin alpha-M (Homo sapiens) (UniProt P05107+P11215)
Assay: enhancers of CD11b/CD18 adhesion to fibrinogen, primary screen, K562 cells, luminescence (AID 1499)
Details: ATPlite luminescence, at 10 µM
In all, about 93,000 compounds went through this assay and about 65 (0.07%) were called active.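 How the source made its calls: active means 10 µM primary screen giving 50% or more activity, confirmed by 40% or more on retest at that dose; inactive means the rest.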 Shown is part of a subset that was picked to be rich in actives.
API: response.call in active, inactive

Worked examples follow.
- MOLECULE: "COCCn1c(C)cc(C2=NNC(=Nc3ccc(F)cc3)SC2)c1C"
  LABEL: "active"
- MOLECULE: "CC(C)(C)c1ccc(C(=O)NCc2nnc(SCC(=O)N3CCCc4ccccc43)n2-c2ccccc2)cc1"
  LABEL: "inactive"
- MOLECULE: "CC(NC(=O)CSc1nc2c(cc1C#N)CN(C)CC2)c1ccccc1 (stereo not given)"
  LABEL: "inactive"
- MOLECULE: "COc1ccc(NC(=O)CN2C(=O)C(c3ccccc3)=NC23CCCCCC3)cc1OC"
  LABEL: "inactive"

Moving on to the next molecule.
Q: Recorded test outcome, item CSCCC(NC(=O)c1cc([N+](=O)[O-])cc([N+](=O)[O-])c1)c1nc2ccccc2[nH]1 (stereo not given)
A: inactive

---

Molecular target: Integrin beta-2 (Homo sapiens) + Integrin alpha-M (Homo sapiens) (UniProt P05107+P11215)
Experiment: enhancers of CD11b/CD18 adhesion to fibrinogen, primary screen, K562 cells, luminescence (AID 1499)
Settings: ATPlite luminescence, at 10 µM, active compounds read high
The campaign covered roughly 93,000 compounds. About 65 (0.07%) were called active. The full list was thinned out, with actives kept by preference.
Listed here: items and their measured activation.
Provide the reading as a plain figure in %.

- COMPOUND: "Cc1ccc(C)c(NC(=S)NCC(c2cccnc2)N2CCOCC2)c1 (configuration not stated)"
  activation (%): 5
- COMPOUND: "CCCC/C(C)=N/NC(=O)NC1CCCCC1"
  activation (%): -0.9
- COMPOUND: "O=C(Nc1nnc(C2COc3ccccc3O2)o1)c1ccc(F)cc1 (configuration not stated)"
  activation (%): 3
- COMPOUND: "Cc1cc([N+](=O)[O-])ccc1NC(=O)C1CCCO1 (configuration not stated)"
  activation (%): 1.8
- COMPOUND: "O=C(CCCCCNC(=O)c1ccccc1)N/N=C/c1ccccc1"
  activation (%): -6.5
- COMPOUND: "COc1ccc(Br)cc1CN(C)CC(=O)Nc1cc([N+](=O)[O-])ccc1OC"
  activation (%): -0.1

Q: Return reported activation for target or system Integrin beta-2 (Homo sapiens) + Integrin alpha-M (Homo sapiens) (UniProt P05107+P11215), item COC(=O)c1ccc(OCC(O)CN(CCO)CC(O)Cn2ccc3ccccc32)cc1 (configuration not stated) .
A: 8.9

Q: Return reported activation for target or system Integrin beta-2 (Homo sapiens) + Integrin alpha-M (Homo sapiens) (UniProt P05107+P11215), item COc1cccc(NC(=O)C(Sc2nc3ccccc3c(=O)n2CC(C)C)c2ccccc2)c1 (configuration not stated) .
A: 1

Q: Return reported activation for target or system Integrin beta-2 (Homo sapiens) + Integrin alpha-M (Homo sapiens) (UniProt P05107+P11215), item N#CCOc1ccc(C2=NO[C@@H]3[C@@H]4C[C@@H]([C@H]5C(=O)N(c6ccc7c(c6)OCO7)C(=O)[C@@H]45)[C@H]23)cc1 .
A: 0.6

Q: Return reported activation for target or system Integrin beta-2 (Homo sapiens) + Integrin alpha-M (Homo sapiens) (UniProt P05107+P11215), item O=C(COC(=O)c1cc2c(s1)CCCC2)NCc1ccccc1Cl .
A: -0.1

Q: Return reported activation for target or system Integrin beta-2 (Homo sapiens) + Integrin alpha-M (Homo sapiens) (UniProt P05107+P11215), item CC(=O)Nc1ccc(S(=O)(=O)N2CCN(c3ccc([N+](=O)[O-])c(NCCN4CCOCC4)c3)CC2)cc1 .
A: 8.9

Q: Return reported activation for target or system Integrin beta-2 (Homo sapiens) + Integrin alpha-M (Homo sapiens) (UniProt P05107+P11215), item CCOC(=O)c1c(/N=C/c2cc(C)ccc2O)sc2c1CCC2 .
A: -6

Q: Return reported activation for target or system Integrin beta-2 (Homo sapiens) + Integrin alpha-M (Homo sapiens) (UniProt P05107+P11215), item Cc1c(C(=O)Nc2cccc(-c3nnc4n3CCCCC4)c2)oc2ccccc12 .
A: 0.4

Reference source for all entries: PubChem BioAssay AID1499
